System: Coxsackievirus B3
Assay: Antiviral activity against Coxsackievirus B3 infected in african green monkey […] assessed as inhibition of virus-induced cytopathic effect after 3 days by MTS assay
Format: functional, organism-based
Details: Enterovirus B, 72 h
pEC50: recorded values
Remember the convention: pEC50 equals -log10 of concentration in molar.

F[C@H]1C[C@H]2C[C@@H]1C[C@@H]2n1cnc2c(Cl)ncnc21 (relative stereo) ... 6.02
Clc1ncnc2c1ncn2[C@@H]1CC2CC1[C@@H](n1cnc3c(Cl)ncnc31)C2 ... 5.11
OCC1CC2CC1C(n1cnc3c(Cl)ncnc31)C2 (stereo not drawn) ... 6.01
Clc1ncnc2c1ncn2[C@@H]1C[C@@H]2C[C@H]1[C@@H]1O[C@@H]21 (relative stereo) ... 5.99
Clc1ncnc2c1ncn2[C@H]1C[C@@H]2C=C[C@H]1C2 (relative stereo) ... 5.61

Dear colleague, I am looking for the recorded pEC50 of the following compound: CC1(C)[C@H]2CC[C@H](C2)[C@@H]1n1cnc2c(Cl)ncnc21 (relative stereo)
4.96

Dear colleague, I am looking for the recorded pEC50 of the following compound: Clc1ncnc2c1ncn2[C@H]1C2C3C[C@H]1C[C@H]32 (relative stereo)
5.82

Dear colleague, I am looking for the recorded pEC50 of the following compound: Clc1ncnc2c1ncn2C[C@H]1C[C@@H]2C=C[C@H]1C2 (relative stereo)
5.45
